Biological target: T1, human CD40L, membrane-bound on cells (human, UniProt P29965 1-261)
T1 sequence: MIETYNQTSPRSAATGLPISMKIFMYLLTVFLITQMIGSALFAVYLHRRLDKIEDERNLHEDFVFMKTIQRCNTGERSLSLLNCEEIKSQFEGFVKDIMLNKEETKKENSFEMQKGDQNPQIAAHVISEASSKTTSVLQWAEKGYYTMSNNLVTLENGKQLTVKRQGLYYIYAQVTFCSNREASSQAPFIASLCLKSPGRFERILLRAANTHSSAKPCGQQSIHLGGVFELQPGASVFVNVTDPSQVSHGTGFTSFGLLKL
Assay: cell-based or functional assay
Provide the reported CHO-hCD40L-driven DC Activation IL-12 EC50 of each item.
Field: numeric (nM). Do not append units.

What CHO-hCD40L-driven DC Activation IL-12 EC50 value was documented for this binder, 2h572-633-CT Long Fc (Fc fusion, not shown: linker and CT Long Fc (CT-L2)) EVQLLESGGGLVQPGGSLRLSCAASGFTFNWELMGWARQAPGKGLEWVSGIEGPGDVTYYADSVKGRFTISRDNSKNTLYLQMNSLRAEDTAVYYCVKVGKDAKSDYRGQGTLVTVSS ? 1.9

What CHO-hCD40L-driven DC Activation IL-12 EC50 value was documented for this binder, 2h572-634-CT Long Fc (Fc fusion, not shown: linker and CT Long Fc (CT-L2)) EVQLLESGGGLVQPGGSLRLSCAASGFTFNWELMGWARQAPGKGLEWVSGIEGPGDVTYYADSVKGRFTISRDNSKNTLYLQMNSLRAEDTAVYYCVKVGKDSRSDYRGQGTLVTVSS ? 1.5

Name the recorded CHO-hCD40L-driven DC Activation IL-12 EC50 for 2h572-614-CT Long Fc (Fc fusion, not shown: linker and CT Long Fc (CT-L2)) EVQLLESGGGLVQPGGSLRLSCAASGFTFNWQLMGWVRQAPGKGLEWVSGIEGPGDVTYYADSVKGRFTISRDNSKNTLYLQMNSLRAEDTAVYYCVKVGKDAKSDYRGQGTLVTVSS . 1.4

Can you look up the measured CHO-hCD40L-driven DC Activation IL-12 EC50 of 2h572-608-CT Long Fc (Fc fusion, not shown: linker and CT Long Fc (CT-L2)) EVQLLESGGGLVQPGGSLRLSCAASGFTFNWELMGWARQAPGKGLEWVSGIEGPGDVTYYADSVKGRFTISRDNSKNTLYLQMNSLRAEDTAVYYCVKVGKESNSDYRGQGTLVTVSS for me? 1.6

Fill blank: measured CHO-hCD40L-driven DC Activation IL-12 EC50 of the binder 2h572-6-CT Long Fc (Fc fusion, not shown: linker and CT Long Fc (CT-L2)) EVQLLESGGGLVQPGGSLRLSCAASGFTFNWQLMGWVRQAPGKGLEWVSGIEGPGDVTYYADSVKGRFTISRDNSKNTLYLQMNSLRAEDTAVYYCVKVGKESNSDYRGQGTLVTVSS is ____. 3

CHO-hCD40L-driven DC Activation IL-12 EC50 lookup needed for 2h572-619-Ctlong Fc (Fc fusion, not shown: linker and CT Long Fc (CT-L2)) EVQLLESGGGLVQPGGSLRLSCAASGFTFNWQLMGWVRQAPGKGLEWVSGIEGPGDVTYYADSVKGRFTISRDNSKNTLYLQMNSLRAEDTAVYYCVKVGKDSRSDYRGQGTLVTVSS , thanks. 1.4

Requested field: CHO-hCD40L-driven DC Activation IL-12 EC50. Item: 2h572-635-CT Long Fc (Fc fusion, not shown: linker and CT Long Fc (CT-L2)) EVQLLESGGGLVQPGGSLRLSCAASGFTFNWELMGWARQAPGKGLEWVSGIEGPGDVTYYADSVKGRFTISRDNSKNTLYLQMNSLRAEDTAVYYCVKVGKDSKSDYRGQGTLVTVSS 1.6

Each recorded value in this set is attributed to patent US20160075790A1.
